Give measured IC50 for each item. Keep answers brief.
- TARGET UNDER TEST: UniProt:Q9Y5X9
- PROCEDURE TEXT: EL assay: endothelial lipase activity with fluorescent substrate A10070 in DMPG vesicles
- Assay type: biochemical

COMPOUND: NS(=O)(=O)CCNC(=O)C(c1nc2ccc(-c3cnn(CCN4CCOCC4)c3)cc2s1)S(=O)(=O)Cc1ccc(F)cc1 (stereo not drawn) [Example B75]
OBSERVED: < 0.01 µM
//
COMPOUND: CC(C)CS(=O)(=O)C(C(=O)NCCS(N)(=O)=O)c1nc2ccc(-c3ccccc3)cc2s1 (stereo not drawn) [Example B106]
OBSERVED: < 0.01 µM

Now turn to the next compound.
Please fill in: IC50 reported for CS(=O)(=O)C(C(=O)NCCS(N)(=O)=O)c1nc2ccc(-c3cnn(Cc4ccccc4)c3)cc2s1 (stereo not drawn) [Example B68] = < 0.01 µM

====

- TARGET UNDER TEST: Endothelial lipase (EL) (Homo sapiens (Human))
- PROCEDURE TEXT: EL assay: endothelial lipase activity with fluorescent substrate A10070 in DMPG vesicles
- Format: biochemical
Give measured IC50 for each item. Keep answers brief.

COMPOUND: NS(=O)(=O)CCNC(=O)C(c1nc2cc(F)c(-c3ccccc3)cc2s1)S(=O)(=O)CCC(F)(F)F (stereo not drawn)
IC50: < 10 nM

COMPOUND: NS(=O)(=O)CCNC(=O)C(c1nc2ccc(-c3cnn(CCN4CCOCC4)c3)cc2s1)S(=O)(=O)CCC(F)(F)F (stereo not drawn)
IC50: < 10 nM

Now turn to the next compound.
Please fill in: IC50 reported for COCCNC(=O)c1ccc(-c2ccc3nc(C(C(=O)NCCS(N)(=O)=O)S(=O)(=O)Cc4ccc(F)cc4)sc3c2)cc1 (stereo not drawn) = < 10 nM

====

- TARGET UNDER TEST: hepatic lipase (HL) (Homo sapiens (Human))
- PROCEDURE TEXT: HL assay: hepatic lipase activity with fluorescent substrate A10070 in DMPG vesicles
- Assay type: biochemical
ASSAY METRIC: IC50 (nM)
Answers are plain numbers, in nM.

Below, each entry is followed by its recorded IC50 result.
MOLECULE: Cn1cc(-c2ccc3nc(C(C(=O)NCCS(N)(=O)=O)S(=O)(=O)Cc4cccc(C(F)(F)F)c4)sc3c2)ccc1=O (stereo not drawn)
TARGET UNDER TEST: hepatic lipase (HL) (Homo sapiens (Human))
IC50, nM: 219
//
MOLECULE: CS(=O)(=O)C(C(=O)NCCS(N)(=O)=O)c1nc2cc(-c3ccc(C(=O)N4CCOCC4)cc3)ccc2s1 (stereo not drawn)
TARGET UNDER TEST: hepatic lipase (HL) (Homo sapiens (Human))
IC50, nM: 494
//
MOLECULE: COCCNC(=O)c1ccc(-c2ccc3nc(C(C(=O)NCCS(N)(=O)=O)S(=O)(=O)Cc4ccc(C(F)(F)F)cc4)sc3c2)cc1 (stereo not drawn)
TARGET UNDER TEST: hepatic lipase (HL) (Homo sapiens (Human))
IC50, nM: 182
//
MOLECULE: NS(=O)(=O)CCNC(=O)C(c1nc2ccc(-c3ccc(C(=O)N4CCOCC4)cc3)cc2s1)S(=O)(=O)Cc1ccc(F)cc1 (stereo not drawn)
TARGET UNDER TEST: hepatic lipase (HL) (Homo sapiens (Human))
IC50, nM: 267
//
MOLECULE: CC(C)S(=O)(=O)C(C(=O)NCCS(N)(=O)=O)c1nc2c(F)cc(-c3cccc(C(=O)OC(C)(C)C)c3)cc2s1 (stereo not drawn)
TARGET UNDER TEST: hepatic lipase (HL) (Homo sapiens (Human))
IC50, nM: 2.9
//
MOLECULE: NS(=O)(=O)CCNC(=O)C(c1nc2ccc(-c3ccc(C(=O)N4CCOCC4)cc3)cc2s1)S(=O)(=O)Cc1ccc(C(F)(F)F)cc1 (stereo not drawn)
TARGET UNDER TEST: hepatic lipase (HL) (Homo sapiens (Human))
IC50, nM: 328
//
MOLECULE: COCCN(C)C(=O)c1ccc(-c2ccc3nc(C(C(=O)NCCS(N)(=O)=O)S(=O)(=O)CC4CC4)sc3c2)cc1 (stereo not drawn)
TARGET UNDER TEST: hepatic lipase (HL) (Homo sapiens (Human))
IC50, nM: 35.2
//
MOLECULE: CS(=O)(=O)C(C(=O)NCCS(N)(=O)=O)c1nc2ccc(-c3ccc(C(=O)N4CCOCC4)c(Cl)c3)cc2s1 (stereo not drawn)
TARGET UNDER TEST: hepatic lipase (HL) (Homo sapiens (Human))
IC50, nM: 923

// batch mode: one IC50 value per listed entry
1. Cc1cc2nc(C(C(=O)NCCS(N)(=O)=O)S(=O)(=O)Cc3ccccc3)sc2cc1-c1ccc(C(=O)N2CC(C)(O)C2)cc1 (stereo not drawn)
2. CC(F)(F)CNC(=O)c1cccc(-c2ccc3nc(C(C(=O)NCCS(N)(=O)=O)S(=O)(=O)CCC(F)(F)F)sc3c2)c1 (stereo not drawn)
3. NS(=O)(=O)CCNC(=O)C(c1nc2cc(F)c(-c3ccccc3)cc2s1)S(=O)(=O)CCN1CCOCC1 (stereo not drawn)
4. CS(=O)(=O)C(C(=O)NCCS(N)(=O)=O)c1nc2ccc(-c3ccccc3F)cc2s1 (stereo not drawn)

Result:
1: 580; 2: 49.2; 3: 20; 4: 1

====

Give measured IC50 for each item. Keep answers brief.
- TARGET UNDER TEST: Endothelial lipase (EL) (Homo sapiens (Human), UniProt Q9Y5X9)
- Sequence (Q9Y5X9 21-500): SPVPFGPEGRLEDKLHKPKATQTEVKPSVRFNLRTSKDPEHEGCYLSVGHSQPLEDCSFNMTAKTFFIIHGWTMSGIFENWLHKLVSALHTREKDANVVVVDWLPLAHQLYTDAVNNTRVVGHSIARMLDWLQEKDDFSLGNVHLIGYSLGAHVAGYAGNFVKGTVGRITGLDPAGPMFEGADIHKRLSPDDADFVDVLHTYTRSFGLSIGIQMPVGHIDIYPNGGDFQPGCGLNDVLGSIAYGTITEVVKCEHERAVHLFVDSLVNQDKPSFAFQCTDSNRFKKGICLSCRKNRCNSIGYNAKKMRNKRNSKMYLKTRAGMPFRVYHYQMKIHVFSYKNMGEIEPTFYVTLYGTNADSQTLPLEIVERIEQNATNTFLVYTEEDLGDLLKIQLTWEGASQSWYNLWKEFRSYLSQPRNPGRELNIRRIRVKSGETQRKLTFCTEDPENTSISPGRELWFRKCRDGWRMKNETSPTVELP
- PROCEDURE TEXT: EL assay: endothelial lipase activity with fluorescent substrate A10070 in DMPG vesicles
- Assay type: biochemical

MOLECULE: NS(=O)(=O)CCNC(=O)C(c1nc2ccc(-c3ccc(C(=O)NCC(F)(F)F)cc3)cc2s1)S(=O)(=O)Cc1ccc(F)cc1 (stereo not drawn)
IC50: < 0.01 µM

// batch mode: one IC50 value per listed entry
1. CS(=O)(=O)C(C(=O)NCCS(N)(=O)=O)c1nc2ccc(-c3ccc4c(c3)NC(=O)C4)cc2s1 (stereo not drawn)
2. COc1ncccc1-c1ccc2nc(C(C(=O)NCCS(N)(=O)=O)S(C)(=O)=O)sc2c1 (stereo not drawn)
3. NS(=O)(=O)CCNC(=O)C(c1nc2ccc(-c3ccccc3)cc2s1)S(=O)(=O)CCC(F)(F)F (stereo not drawn)

Result:
1. < 0.01 µM
2. < 0.01 µM
3. 0.0068 µM

// batch mode: one IC50 value per listed entry
1. CC(=O)Nc1cccc(-c2ccc3nc(C(C(=O)NCCS(N)(=O)=O)S(C)(=O)=O)sc3c2)c1 (stereo not drawn)
2. CS(=O)(=O)C(C(=O)NCc1csc(N)n1)c1nc2ccc(-c3ccc(C(=O)N4CCOCC4)cc3)cc2s1 (stereo not drawn)

Result:
["< 0.01 µM", "< 0.01 µM"]

====

- TARGET UNDER TEST: hepatic lipase (HL) (Homo sapiens (Human), UniProt P11150)
- Sequence (P11150 23-499, species assumed): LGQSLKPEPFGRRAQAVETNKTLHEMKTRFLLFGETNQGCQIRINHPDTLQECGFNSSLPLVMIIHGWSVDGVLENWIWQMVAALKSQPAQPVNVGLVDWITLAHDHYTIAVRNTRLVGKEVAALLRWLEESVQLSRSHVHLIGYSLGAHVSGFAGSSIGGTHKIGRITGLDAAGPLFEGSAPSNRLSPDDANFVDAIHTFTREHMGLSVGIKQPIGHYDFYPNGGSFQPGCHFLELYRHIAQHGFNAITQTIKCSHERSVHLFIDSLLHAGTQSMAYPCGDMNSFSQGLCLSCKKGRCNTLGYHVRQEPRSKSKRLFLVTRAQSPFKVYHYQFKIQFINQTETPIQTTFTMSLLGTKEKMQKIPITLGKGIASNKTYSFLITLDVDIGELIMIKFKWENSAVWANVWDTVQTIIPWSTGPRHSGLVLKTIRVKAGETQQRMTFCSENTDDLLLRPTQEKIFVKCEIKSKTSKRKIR
- PROCEDURE TEXT: HL assay: hepatic lipase activity with fluorescent substrate A10070 in DMPG vesicles
- Assay type: biochemical
Give measured pIC50 for each item. Keep answers brief.
Answers are plain numbers, as −log10 of the molar value.

// batch mode: one pIC50 value per listed entry
1. CC(C)CS(=O)(=O)C(C(=O)NCCS(N)(=O)=O)c1nc2ccc(-c3ccc(C(=O)N4CCOCC4)cc3)cc2s1 (centres unmarked)
2. NS(=O)(=O)CCNC(=O)C(c1nc2ccc(-c3ccnc(O)c3)cc2s1)S(=O)(=O)CCC(F)(F)F (centres unmarked)

Result:
[6.72, 6.35]

// batch mode: one pIC50 value per listed entry
1. NS(=O)(=O)CCNC(=O)C(c1nc2ccc(-c3ccc(C(=O)NCC(F)(F)F)cc3)cc2s1)S(=O)(=O)Cc1ccc(F)cc1 (centres unmarked)
2. NS(=O)(=O)CCNC(=O)C(c1nc2ccc(-c3ccc(C(=O)NCCO)cc3)cc2s1)S(=O)(=O)CC1CC1 (centres unmarked)
3. CC1(O)CCN(C(=O)c2ccc(-c3ccc4nc(C(C(=O)NCCS(N)(=O)=O)S(C)(=O)=O)sc4c3)cc2)CC1 (centres unmarked)
4. NS(=O)(=O)CCNC(=O)C(c1nc2ccc(-c3cncnc3)cc2s1)S(=O)(=O)CCC(F)(F)F (centres unmarked)

Result:
1: 7.21; 2: 6.99; 3: 7.04; 4: 5.68

Please fill in: pIC50 reported for CS(=O)(=O)C(C(=O)NCCS(N)(=O)=O)c1nc2ccc(-c3ccnc(O)c3)cc2s1 (centres unmarked) = 7.89

====

- TARGET UNDER TEST: Endothelial lipase (EL) (Homo sapiens (Human))
- PROCEDURE TEXT: EL assay: endothelial lipase activity with fluorescent substrate A10070 in DMPG vesicles
- Type: biochemical
ASSAY METRIC: IC50

// batch mode: one IC50 value per listed entry
1. COCCS(=O)(=O)C(C(=O)NCCS(N)(=O)=O)c1nc2ccc(-c3ccccc3)cc2s1 (stereo not drawn)
2. CS(=O)(=O)C(C(=O)NCCS(N)(=O)=O)c1nc2ccc(-c3cnn(CCN4CCOCC4)c3)cc2s1 (stereo not drawn)
3. COCCS(=O)(=O)C(C(=O)NCCS(N)(=O)=O)c1nc2ccc(-c3ccnc(O)c3)cc2s1 (stereo not drawn)

Result:
< 10 nM
< 10 nM
< 10 nM
